- Target or test system: human PCSK9 (Homo sapiens)
- Sequence (Q8NBP7 153-692): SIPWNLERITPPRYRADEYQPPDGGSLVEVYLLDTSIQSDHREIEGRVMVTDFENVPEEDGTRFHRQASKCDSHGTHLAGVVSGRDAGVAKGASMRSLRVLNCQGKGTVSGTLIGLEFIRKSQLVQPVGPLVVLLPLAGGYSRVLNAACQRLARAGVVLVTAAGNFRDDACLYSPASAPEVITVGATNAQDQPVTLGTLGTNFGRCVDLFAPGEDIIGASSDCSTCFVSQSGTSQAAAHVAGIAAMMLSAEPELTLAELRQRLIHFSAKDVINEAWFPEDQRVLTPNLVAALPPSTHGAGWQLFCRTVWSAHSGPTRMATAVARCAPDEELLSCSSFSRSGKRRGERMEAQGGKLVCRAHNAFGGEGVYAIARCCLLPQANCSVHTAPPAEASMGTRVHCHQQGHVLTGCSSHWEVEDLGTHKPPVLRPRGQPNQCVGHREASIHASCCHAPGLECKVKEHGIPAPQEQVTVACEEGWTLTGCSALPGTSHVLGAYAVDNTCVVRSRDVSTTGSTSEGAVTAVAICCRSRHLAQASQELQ
- Sequence (Q8NBP7 31-152 partner limits assumed): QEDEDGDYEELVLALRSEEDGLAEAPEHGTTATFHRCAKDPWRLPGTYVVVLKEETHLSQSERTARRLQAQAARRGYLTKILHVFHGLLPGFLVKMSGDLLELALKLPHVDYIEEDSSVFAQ
- Test summary: PCSK9 ligand binding assay (TR-FRET): interference with binding of human PCSK9 to human LDLR
- Conditions used: TR-FRET; Human PCSK9 Alexa Fluor 647 and Human LDLR extracellular domain-Europium Kryptate
Bridge positions count the residues as written; N and C are the ends. Square brackets hold non-standard residues; d marks the D form. Peptide text beside a SMILES is read from it. Phe(4-CF3) = N[C@@H](Cc1ccc(C(F)(F)F)cc1)C(=O)O; Bip = N[C@@H](Cc1ccc(-c2ccccc2)cc1)C(=O)O; NMeF = CN[C@@H](Cc1ccccc1)C(=O)O; NMeA = CN[C@@H](C)C(=O)O
// reported IC50 for each item listed
Property measured: IC50 (nM)

Molecule | Property measured | Result
CC(C)[C@@H]1NC(=O)[C@H](Cc2ccccc2)NC(=O)CSC[C@@H](C(=O)NCC(N)=O)NC(=O)[C@@H]2CCCN2C(=O)[C@H](C)NC(=O)[C@H](CCCCN)NC(=O)[C@H](C)N(C)C(=O)[C@H](Cc2ccc(-c3ccccc3)cc2)NC(=O)[C@H](C)N(C)C(=O)[C@H](Cc2ccccc2)NC(=O)[C@H]([C@@H](C)O)NC(=O)[C@H]([C@@H](C)O)NC(=O)[C@H](C)NC1=O [Example 1-22] ({CH2CO}-FVATTF[NMeA][Bip][NMeA]KAPCG-NH2; thioether N-13) | IC50 | 12
CC(C)[C@@H]1NC(=O)[C@H](Cc2ccccc2)NC(=O)CSC[C@@H](C(=O)NCC(N)=O)NC(=O)[C@@H]2CCCN2C(=O)[C@H](CO)NC(=O)[C@H](CCC(=O)O)NC(=O)[C@H](C)N(C)C(=O)[C@H](Cc2ccc(C(F)(F)F)cc2)NC(=O)[C@H](Cc2ccccc2)N(C)C(=O)[C@H](CO)NC(=O)[C@H]([C@@H](C)O)NC(=O)[C@H]([C@@H](C)O)NC(=O)[C@H](CC(=O)O)NC1=O [Example 1-6] ({CH2CO}-FVDTTS[NMeF][Phe(4-CF3)][NMeA]ESPCG-NH2; thioether N-13) | IC50 | 12

All values here come from patent US12209144B2.
